Biological target: human recombinant KAT-II (Homo sapiens (Human), UniProt Q8N5Z0)
Sequence (Q8N5Z0 30-425): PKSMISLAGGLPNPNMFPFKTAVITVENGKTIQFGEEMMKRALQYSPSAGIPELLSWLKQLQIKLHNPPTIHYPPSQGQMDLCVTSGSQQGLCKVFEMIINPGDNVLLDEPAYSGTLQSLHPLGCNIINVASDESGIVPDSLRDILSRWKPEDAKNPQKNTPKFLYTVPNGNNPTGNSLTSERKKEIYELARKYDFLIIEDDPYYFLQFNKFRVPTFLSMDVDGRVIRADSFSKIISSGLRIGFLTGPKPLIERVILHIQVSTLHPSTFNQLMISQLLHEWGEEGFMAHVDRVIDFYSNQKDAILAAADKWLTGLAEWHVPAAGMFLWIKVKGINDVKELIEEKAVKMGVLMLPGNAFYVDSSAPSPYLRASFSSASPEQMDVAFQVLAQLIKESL
Experiment: KAT-II inhibitory test
Details: 3.0 μmol/L kynurenine, 37° C. for 1 hr, kynurenic acid by HPLC
quantity_kind: IC50 (nM)

> print(dat)
                            molecule.smiles   u  meas.value
1  CCOc1nc(C)c2sc(N3CCC[C@@H]3C(=O)NCc3ccccc3)nc2n1  nM         420
2  Cc1nc(OC2CCOCC2)nc2nc(N3CCC[C@@H]3C(=O)NCc3ccccc3)sc12  nM         390
3  O=C(NCc1ccccc1)[C@H]1CCCN1c1nc2ncc(C3(O)CCC3)cc2s1  nM         190
4  O=C(NCc1ccccc1)[C@H]1CCCN1c1nc2ncnc(OC3CCC3)c2s1  nM          46
5  COCc1ccnc2nc(N3CCC[C@@H]3C(=O)NCc3ccccc3)sc12  nM         320

---

Biological target: human recombinant KAT-II (Homo sapiens (Human))
Test: KAT-II inhibitory test
Settings: 3.0 μmol/L kynurenine, 37° C. for 1 hr, kynurenic acid by HPLC
quantity_kind: IC50 (nM)

> print(dat)
                                   compound                              study.system  meas.value
1  Cc1cnc2nc(N3CCC[C@@H]3C(=O)NCc3ccccc3)sc2c1C#N [Example 136]  human recombinant KAT-II (Homo sapiens (Human))         490
2  Cc1cnc2nc(N3CCC[C@@H]3C(=O)NCc3ccccc3)sc2c1 [Example 134]  human recombinant KAT-II (Homo sapiens (Human))         200
3  CN(C)c1nc(C2CC2)c2sc(N3CCC[C@@H]3C(=O)NCc3ccccc3)nc2n1 [Example 106]  human recombinant KAT-II (Homo sapiens (Human))         920
4  O=C(NCc1ccccc1)[C@H]1CCCN1c1nc2ncnc(Oc3ccccc3)c2s1 [Example 66]  human recombinant KAT-II (Homo sapiens (Human))          12
5  O=C(NCc1ccccc1)[C@H]1CCCN1c1nc2ncnc(C3CC3)c2s1 [Example 23]  human recombinant KAT-II (Homo sapiens (Human))          26
6  CCOc1nc(C2CCOCC2)nc2nc(N3CCC[C@@H]3C(=O)NCc3ccccc3)sc12 [Example 75]  human recombinant KAT-II (Homo sapiens (Human))          95
7  Cc1nc(C(C)(C)c2cnc3nc(N4CCC[C@@H]4C(=O)NCc4ccccc4)sc3c2)no1 [Example 171]  human recombinant KAT-II (Homo sapiens (Human))         390
8  COCC1(c2cnc3nc(N4CCC[C@@H]4C(=O)NCc4ccccc4)sc3c2)CC1 [Example 117]  human recombinant KAT-II (Homo sapiens (Human))         170

---

Biological target: human recombinant KAT-II (Homo sapiens (Human))
Test: KAT-II inhibitory test
Conditions: 3.0 μmol/L kynurenine, 37° C. for 1 hr, kynurenic acid by HPLC
quantity_kind: IC50 (nM)

> print(dat)
                                   molecule  meas.value
1  O=C(NCc1ccccc1)[C@H]1CCCN1c1nc2ncc(C3CC3)nc2s1 [Example 192]          33
2  Cc1cnc2nc([C@H]3CCCN3C(=O)Cc3ccccc3)sc2c1 [Example 196]        2900
3  O=C(NCc1ccccc1)[C@H]1CSCN1c1nc2ncnc(C3CC3)c2s1 [Example 100]         240
4  CC(C)(C)c1ncnc2nc(N3CCC[C@@H]3C(=O)NCc3ccccc3)sc12 [Example 30]         270
5  Cc1nc(-c2cnc3nc(N4CCC[C@@H]4C(=O)N[C@H](C)c4ccccc4)sc3c2)no1 [Example 148]          93
6  CC(C)(C#N)c1ncnc2nc(N3CCC[C@@H]3C(=O)NCc3ccccc3)sc12 [Example 76]        1500
7  COCc1nc(C(F)(F)F)c2sc(N3CCC[C@@H]3C(=O)NCc3ccccc3)nc2n1 [Example 56]         230
8  O=C(NCc1ccccc1)[C@H]1CCCN1c1nc2ncnc(OCC(F)(F)F)c2s1 [Example 70]         160

---

Item-by-item account of pIC50
Biological target: human recombinant KAT-II (Homo sapiens (Human), UniProt Q8N5Z0)
Assay: KAT-II inhibitory test
Conditions: 3.0 μmol/L kynurenine, 37° C. for 1 hr, kynurenic acid by HPLC
Protocol: The compounds described in the above-mentioned Examples were used for the KAT-II inhibitory test. Human recombinant KAT-II was prepared as follows. […] The inhibitory action of the test compound on human recombinant KAT-II was determined by the following method. […] The resultant kynurenic acid was quantified as follows by high performance liquid chromatography. […]
pIC50: −log10 of the molar value. Where a name gives a salt, the structure may show the parent alone.
quantity_kind: pIC50

> print(dat)
                                    compound  meas.value
 1  COCCN(c1nc2ncnc(C3CC3)c2s1)[C@H](C)C(=O)NCc1ccccc1        6.39
 2  CN(C)c1cnc2nc(N3CCC[C@@H]3C(=O)NCc3ccccc3)sc2n1        6.68
 3  CN(C)Cc1cnc2nc(N3CCC[C@@H]3C(=O)NCc3ccccc3)sc2c1C1CC1 [Example 176, hydrochloride]        6.72
 4  O=C(NCc1ccccc1)[C@H]1CCCN1c1nc2ncc(CN3CCCCC3)c(C3CC3)c2s1 [Example 175, hydrochloride]        6.44
 5  O=C(NCc1ccccc1)[C@H]1CCCN1c1nc2ncnc(OC3CCOCC3)c2s1        6.89
 6  O=C(NCc1ccccc1)[C@H]1CCCN1c1nc2ncc(C(F)(F)F)cc2s1        6.15
 7  N#CC1(c2cnc3nc(N4CCC[C@@H]4C(=O)NCc4ccccc4)sc3c2)CCC1        7.15
 8  CCCc1ncnc2nc(N3CCC[C@@H]3C(=O)NCc3ccccc3)sc12        6.92
 9  CN(c1nc2ncnc(C3CC3)c2s1)[C@@H](C(=O)NCc1ccccc1)C1CC1        6.85
10  O=C(NCc1ccccc1)[C@H]1CCCN1c1nc2ncnc(-c3ccccn3)c2s1        6.54
11  Cc1nc(-c2cnc3nc(N4CCC[C@@H]4C(=O)NCc4ccccc4)sc3c2)no1        6.19
12  COCc1ncnc2nc(N3CCC[C@@H]3C(=O)NCc3ccccc3)sc12        6.22
13  CCc1c(-c2cnn(C)c2)cnc2nc(N3CCC[C@@H]3C(=O)NCc3ccccc3)sc12        7.47
14  CC(C)(C#N)c1cnc2nc(N3CCC[C@@H]3C(=O)NCc3ccccc3)sc2c1        7.07
15  Cc1nc(-c2c(C)cnc3nc(N4CCC[C@@H]4C(=O)NCc4ccccc4)sc23)no1        6.96
16  CCOc1ncnc2nc(N3CCC[C@@H]3C(=O)NCc3ccccc3)sc12        7.43
17  O=C(NCc1ccccc1)[C@H]1CCCN1c1nc2nc(CN3CCOCC3)nc(C3CC3)c2s1        7.12

---

Target: human recombinant KAT-II (Homo sapiens (Human), UniProt Q8N5Z0)
Test: KAT-II inhibitory test
Conditions: 3.0 μmol/L kynurenine, 37° C. for 1 hr, kynurenic acid by HPLC
quantity_kind: IC50 (µM)

> print(dat)
                                    compound                              study.system   u  meas.value
 1  N#Cc1cnc2nc(N3CCC[C@@H]3C(=O)NCc3ccccc3Cl)sc2c1 [Example 178]  human recombinant KAT-II (Homo sapiens (Human), UniProt Q8N5Z0)  µM         0.9
 2  C[C@H](C(=O)NCc1ccccc1)N(Cc1ccccn1)c1nc2ncnc(C3CC3)c2s1 [Example 39]  human recombinant KAT-II (Homo sapiens (Human), UniProt Q8N5Z0)  µM        0.35
 3  CCNc1nc(C(F)(F)F)nc2nc(N3CCC[C@@H]3C(=O)NCc3ccccc3)sc12 [Example 67]  human recombinant KAT-II (Homo sapiens (Human), UniProt Q8N5Z0)  µM       0.012
 4  O=C(NCc1ccccc1)[C@H]1CCCN1c1nc2nc(COC3CCOCC3)nc(C3CC3)c2s1 [Example 83]  human recombinant KAT-II (Homo sapiens (Human), UniProt Q8N5Z0)  µM       0.013
 5  Cc1cnc2nc([C@H]3CCCN3C(=O)Oc3ccccc3)sc2c1 [Example 197]  human recombinant KAT-II (Homo sapiens (Human), UniProt Q8N5Z0)  µM           3
 6  COC1(c2cnc3nc(N4CCC[C@@H]4C(=O)NCc4ccccc4)sc3c2)CCC1 [Example 127]  human recombinant KAT-II (Homo sapiens (Human), UniProt Q8N5Z0)  µM        0.28
 7  CCc1nc(-n2nc(C)cc2C)nc2nc(N3CCC[C@@H]3C(=O)NCc3ccccc3)sc12 [Example 103]  human recombinant KAT-II (Homo sapiens (Human), UniProt Q8N5Z0)  µM         0.2
 8  COCCc1ncnc2nc(N3CCC[C@@H]3C(=O)NCc3ccccc3)sc12 [Example 32]  human recombinant KAT-II (Homo sapiens (Human), UniProt Q8N5Z0)  µM        0.39
 9  COCc1c(F)cnc2nc(N3CCC[C@@H]3C(=O)NCc3ccccc3)sc12 [Example 163]  human recombinant KAT-II (Homo sapiens (Human), UniProt Q8N5Z0)  µM        0.91
10  O=C(NCc1ccc(F)cc1)[C@H]1CCCN1c1nc2ncc(C3CC3)cc2s1 [Example 162]  human recombinant KAT-II (Homo sapiens (Human), UniProt Q8N5Z0)  µM         0.3
11  CCc1nc(-n2nccn2)nc2nc(N3CCC[C@@H]3C(=O)NCc3ccccc3)sc12 [Example 101]  human recombinant KAT-II (Homo sapiens (Human), UniProt Q8N5Z0)  µM        0.15
12  C[C@H](C(=O)NCc1ccccc1)N(C)c1nc2ncnc(C3CC3)c2s1 [Example 36]  human recombinant KAT-II (Homo sapiens (Human), UniProt Q8N5Z0)  µM       0.064
13  CCOc1cnc2nc(N3CCC[C@@H]3C(=O)NCc3ccccc3)sc2n1 [Example 190]  human recombinant KAT-II (Homo sapiens (Human), UniProt Q8N5Z0)  µM        0.49
14  CC(C)c1cnc2nc(N3CCC[C@@H]3C(=O)NCc3ccccc3)sc2c1 [Example 111]  human recombinant KAT-II (Homo sapiens (Human), UniProt Q8N5Z0)  µM        0.21
15  CCOc1c(COC)cnc2nc(N3CCC[C@@H]3C(=O)NCc3ccccc3)sc12 [Example 164]  human recombinant KAT-II (Homo sapiens (Human), UniProt Q8N5Z0)  µM        0.15
16  COCc1cnc2nc(N3CCC[C@@H]3C(=O)NCc3ccccc3)sc2c1 [Example 159]  human recombinant KAT-II (Homo sapiens (Human), UniProt Q8N5Z0)  µM        0.64
17  O=C(NCc1ccccc1)[C@H]1CCCN1c1nc2ncc(-c3ccccc3)nc2s1 [Example 189]  human recombinant KAT-II (Homo sapiens (Human), UniProt Q8N5Z0)  µM        0.21
